B1: Tudor domain-containing protein 3, residues 554 to 611; numbered along this chain, Q9H7E2 (parent)
chain: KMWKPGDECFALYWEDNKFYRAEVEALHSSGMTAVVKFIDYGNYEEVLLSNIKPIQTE

Variants of: B1
Experiment: abundance fitness (aPCA) (normalised: wild type 0, dead -1); higher = more abundant; growth selection in yeast, the domain comes from the species named
Details: Homo sapiens

mutant label | abundance fitness
V24W | -0.811
A22Q | -0.955
G31A | 0.015
F19Q | -0.599
Q56T | -0.003
Y41L | -0.045
Y44K | 0.157
V24Q | -0.986
F38R | -0.894
L49G | -0.954
E8M | -0.046
Y13R | 0.069
S50P | -0.548
S30T | -0.119
A34H | -0.861
F19D | -0.881
L48I | -0.408
T33A | -0.121
L49W | -0.629
Y41P | -0.446
Y44F | 0.006
A34E | -0.976
L27N | -0.879
A22H | -0.936
F38N | -0.802
A22Y | -0.844
I52F | -0.906
T33I | -0.276
V24P | -0.906
W14E | 0.011
K18C | -0.188
D7P | -0.706
V36G | -0.833
E58Q | -0.252
M32Y | 0.195
T57I | -0.036
H28E | -0.159
G42Q | -0.345
M32F | -0.005
